Listing: self-cleavage kobs at 640 uM GlcN6P of selected variants
B1: glmS ribozyme (parent)
chain: AUAAAAGCGCCAGAACUACAGAAAUGUAGUUGACGAGGAGGAGGUUUAUCGAAUUUUCGGCGGAUGCCUCCAAA

Variants of: B1
EXPERIMENT DESCRIPTION: self-cleavage kobs at 640 uM GlcN6P; higher = faster cleavage; RNA array
TEST CONDITIONS: with glucosamine-6-phosphate
This sample holds only a part of the variants without activity.

Recorded self-cleavage kobs at 640 uM GlcN6P, per entry:
A14G U45G
0.00617 s⁻¹
C16U C71A
0.00168 s⁻¹
G13U A15C C58G
0.00154 s⁻¹
U54A C61U G62A
< 1e-05 s⁻¹

self-cleavage kobs at 640 uM GlcN6P in this record for A15U U55C C70U : 4.5e-05 s⁻¹

self-cleavage kobs at 640 uM GlcN6P in this record for C11U U55G C70A : 8.31e-05 s⁻¹

self-cleavage kobs at 640 uM GlcN6P in this record for G9U G37C : < 1e-05 s⁻¹

self-cleavage kobs at 640 uM GlcN6P in this record for C67G C70U : 4.24e-05 s⁻¹

self-cleavage kobs at 640 uM GlcN6P in this record for A14G C16U G41A : 0.00178 s⁻¹

self-cleavage kobs at 640 uM GlcN6P in this record for C8G U55A : < 1e-05 s⁻¹

self-cleavage kobs at 640 uM GlcN6P in this record for G7A G9C A33U G66C : < 1e-05 s⁻¹

self-cleavage kobs at 640 uM GlcN6P in this record for A15C A48U U49G G62U : < 1e-05 s⁻¹

self-cleavage kobs at 640 uM GlcN6P in this record for U57G C71U : 3.26e-05 s⁻¹

self-cleavage kobs at 640 uM GlcN6P in this record for G41U U47A : 0.000232 s⁻¹

self-cleavage kobs at 640 uM GlcN6P in this record for C11A G41U : < 1e-05 s⁻¹

self-cleavage kobs at 640 uM GlcN6P in this record for G13U G29U A39G : 0.000115 s⁻¹

self-cleavage kobs at 640 uM GlcN6P in this record for A39G G60A U69G : < 1e-05 s⁻¹
